Taken from patent US20150037821A1.

Biological target: PF4 (Homo sapiens)
Construct: platelet factor 4 which is a 70 amino acid, lysine-rich, 7.8 kDa platelet-specific protein
Sequence (P02776 32-101): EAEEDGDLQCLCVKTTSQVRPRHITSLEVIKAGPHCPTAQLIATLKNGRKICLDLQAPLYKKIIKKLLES
Assay: DT40 cell (FcγRIIA + NFAT-Luc reporter) activation assay: inhibition by PF4 antagonists
Conditions: PF4 10 μg/mL, heparin 0.3 U/mL, KKO 20 μg/mL; luciferase readout after 6 hours
pIC50: −log10 of the molar value.
property-measured: pIC50

PF4 (Homo sapiens) / pIC50 / O=C(O)c1ccccc1OP(=O)(O)O : value?
3.30

(1) O=C(O)CCc1ccc(-c2ccc(Cl)cc2)n1CC(=O)O
(2) CC(=O)C1=C(O)c2cc([N+](=O)[O-])ccc2C1=O
(3) CCOC(=O)Cn1c(CCC(=O)O)ccc1-c1ccc(Cl)cc1
Order the records so the highest pIC50 appears first and the lowest last. # respond with the labels, arranged in the requested order
2, 3, 1
